molecular target: Sodium-dependent dopamine transporter (Rattus norvegicus); assay: Inhibition of [3H]mazindol binding to the dopamine transporter.
Sequence (P23977 whole entry): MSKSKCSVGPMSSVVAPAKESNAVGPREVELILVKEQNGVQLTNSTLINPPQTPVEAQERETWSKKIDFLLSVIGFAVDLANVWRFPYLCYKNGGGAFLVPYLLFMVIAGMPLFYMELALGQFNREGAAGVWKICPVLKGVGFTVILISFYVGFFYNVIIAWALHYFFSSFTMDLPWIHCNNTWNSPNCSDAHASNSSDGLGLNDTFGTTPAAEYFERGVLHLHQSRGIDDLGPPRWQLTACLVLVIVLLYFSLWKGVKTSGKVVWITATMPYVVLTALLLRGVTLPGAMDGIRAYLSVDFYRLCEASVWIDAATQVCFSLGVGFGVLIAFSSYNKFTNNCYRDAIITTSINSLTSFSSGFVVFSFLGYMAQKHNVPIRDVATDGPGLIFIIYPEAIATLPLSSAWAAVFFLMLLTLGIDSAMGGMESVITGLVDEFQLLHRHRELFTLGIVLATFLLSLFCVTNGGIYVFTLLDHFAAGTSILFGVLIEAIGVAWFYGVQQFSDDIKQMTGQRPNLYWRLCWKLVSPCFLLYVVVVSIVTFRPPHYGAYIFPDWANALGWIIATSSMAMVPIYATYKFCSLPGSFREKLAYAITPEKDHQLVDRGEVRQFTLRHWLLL
pIC50: −log10 of the molar value.
Everything with pIC50 lower than 6 is Criterion not met; everything else, including exactly 6, is Criterion met.

COC(=O)C1C2CC[C@H](C[C@@H]1OC(=O)c1ccccc1)[N+]2(C)C (stereo partly drawn)	Criterion not met
COC(=O)[C@@H]1C2CC[C@H](C[C@@H]1c1ccccc1)N2C (stereo in doubt; 68)	Criterion not met
CN1C2CC[C@@H]1C[C@H](OC(=O)c1ccc(N)cc1)C2C(=O)O (stereo partly drawn)	Criterion not met
CC[C@H](C)[C@H](NC(=O)[C@@H](NC[C@H](CC(C)C)NC(=O)[C@H](Cc1c[nH]cn1)NC(=O)[C@H](Cc1ccccc1)NC(=O)[C@]1(C)CCCN1C(=O)OC(C)(C)C)C(C)C)C(=O)NCc1ccccn1	Criterion met
COC(=O)C1C2CC[C@H](C[C@@H]1OC(=O)c1ccc(N)cc1)N2C (stereo partly drawn)	Criterion not met
COC(=O)C1C2CC[C@H](C[C@@H]1c1ccccc1)N2 (stereo partly drawn)	Criterion met
COC(=O)C1C2CC[C@H](C[C@@H]1O)N2C (stereo in doubt; 18)	Criterion not met

Lab note: next molecule to report on.
Decide: is the reported value of pIC50 for COC(=O)C1C2CC[C@H](C[C@H]1c1ccc(C)cc1)N2C (stereo partly drawn) equal to or greater than 6? Criterion met
